Just for reference, paper PMC5540273 is where these values come from.

System: ERK2
Construct: gene MAPK1
Conditions: concentration: 1 μM,replicates: in singlicate; n = 1
Decide using %Inh: a value greater than or equal to 2% is yes, a smaller one is no.

Below are worked cases with known answers.
molecule: Cc1ccc2c(-c3ccnc(Nc4ccc(C(F)(F)F)cc4)n3)cnn2n1 [GW819776]
target: ERK2
assignedCategory: yes
--
molecule: CS(=O)(=O)Nc1ccc(-c2ccnc3[nH]ccc23)cc1 [GSK993273]
target: ERK2
assignedCategory: no
--
molecule: C[C@@H]1CNc2c(sc3ccc4nc(-c5ccncc5)ccc4c23)C(=O)N1
target: ERK2;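 note: KINOMEscan kinase panel screen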
assignedCategory: yes

Attention now turns to another entry.
## Task Reported %Inh at or above 2%? Cn1cc(-c2cccc3c(N)c(C(N)=O)nnc23)cn1
## Result yes
